Please respond with reported Edema suppression rate of 6 hours after administration of inflammatory agent (%) for every item in the list.
- Tested on: croton oil-induced ear edema
- protocol-description: Test for croton oil-induced ear edema
- Assay type: in vivo
- assay-setup: rat right auricle, ointment concentration 0.001%, 6 hours after croton oil
- Experimental: Croton oil ear edema test, which is a representative model for dermatitis, was used to study the pharmacological effect of compounds of the present invention. Five individuals/group of rats of 5 weeks old (body weight, 128 g to 169 g) were used. One day before the test, the thickness of the right ear was measured under ether anesthesia using a dial thickness gauge, to obtain the Pre value. […]
One number for each entry, in %.

Answered examples (3):
[
  {
    "compound": "CC(=O)OC1C(C)OC(OCC(=O)C23OC(C4CCCCC4)OC2CC2C4CCC5=CC(=O)C=CC5(C)C4C(O)CC23C)C(OC(C)=O)C1OC(C)=O (stereo not shown) [Compound 9]",
    "scale-unit": "%",
    "value-measured": 24.6
  },
  {
    "compound": "CC(=O)OCC1OC(OCC(=O)C23OC(C4CCCCC4)OC2CC2C4CCC5=CC(=O)C=CC5(C)C4C(O)CC23C)C(OC(C)=O)C(OC(C)=O)C1OC(C)=O (stereo not shown) [Compound 3]",
    "scale-unit": "%",
    "value-measured": 50.3
  },
  {
    "compound": "CC(=O)OC1C(C)OC(OCC(=O)C23OC(C4CCCCC4)OC2CC2C4CCC5=CC(=O)C=CC5(C)C4C(O)CC23C)C(OC(C)=O)C1OC(C)=O (stereo not shown) [Compound 10]",
    "scale-unit": "%",
    "value-measured": 42.4
  }
]

Please look at the items below and tell me Edema suppression rate of 6 hours after administration of inflammatory agent (%) for each one, in order.
1. CC(C)C(=O)OCC(=O)[C@@]12O[C@H](C3CCCCC3)O[C@@H]1C[C@H]1[C@@H]3CCC4=CC(=O)C=C[C@]4(C)[C@H]3[C@@H](O)C[C@@]12C [Ciclesonide, ciclesonide, reference compound]
2. CC12C=CC(=O)C=C1CCC1C2C(O)CC2(C)C1CC1OC(C3CCCCC3)OC12C(=O)COC1OC(COC=O)C(OC=O)C(OC=O)C1OC=O (stereo not shown) [Compound 7]
3. CC12C=CC(=O)C=C1CCC1C2C(O)CC2(C)C1CC1OC(C3CCCCC3)OC12C(=O)COC1OC(COC(=O)c2ccco2)C(OC(=O)c2ccco2)C(OC(=O)c2ccco2)C1OC(=O)c1ccco1 (stereo not shown) [Compound 8]
4. CCCC1O[C@@H]2C[C@H]3[C@@H]4CCC5=CC(=O)C=C[C@]5(C)[C@H]4[C@@H](O)C[C@]3(C)[C@]2(C(=O)CO)O1 (stereo partly shown) [Budesonide, budesonide, reference compound]

1: 9.1; 2: 42.3; 3: 24.2; 4: 11.8

----------
- System: croton oil-induced granuloma
- protocol-description: Test for croton oil-induced granuloma (air pouch exudate and thymus weight)
- Type: in vivo, rat
- assay-setup: male Wistar rats, dose 1 mg/rat into pouch, 7 days, vs control group
recorded-metric: Rate of thymus atrophy (systemic side effects) (%)
Give bare numbers, in %.

Answered examples (3):
[
  {
    "compound": "CC12C=CC(=O)C=C1CCC1C2C(O)CC2(C)C1CC1OC(C3CCCCC3)OC12C(=O)COC1OC(COC=O)C(OC=O)C(OC=O)C1OC=O (centres unmarked)",
    "scale-unit": "%",
    "value-measured": 19.5
  },
  {
    "compound": "CC(=O)NC1C(OCC(=O)C23OC(C4CCCCC4)OC2CC2C4CCC5=CC(=O)C=CC5(C)C4C(O)CC23C)OC(COC(C)=O)C(OC(C)=O)C1OC(C)=O (centres unmarked) [Compound 11]",
    "scale-unit": "%",
    "value-measured": 16.0
  },
  {
    "compound": "CCC(=O)OCC1OC(OCC(=O)C23OC(C4CCCCC4)OC2CC2C4CCC5=CC(=O)C=CC5(C)C4C(O)CC23C)C(OC(=O)CC)C(OC(=O)CC)C1OC(=O)CC (centres unmarked)",
    "scale-unit": "%",
    "value-measured": 0.0
  }
]

Please look at the items below and tell me Rate of thymus atrophy (systemic side effects) for each one, in order.
1. CC(=O)OCC1OC(OCC(=O)C23OC(C4CCCCC4)OC2CC2C4CCC5=CC(=O)C=CC5(C)C4C(O)CC23C)C(OC(C)=O)C(OC(C)=O)C1OC(C)=O (centres unmarked)
2. C[C@]12C=CC(=O)C=C1CC[C@@H]1[C@@H]2[C@@H](O)C[C@@]2(C)[C@H]1C[C@H]1O[C@@H](C3CCCCC3)O[C@]12C(=O)CO [desCIC, des-ciclesonide, reference compound]

[2.4, 86.4]

----------
Please respond with reported Edema suppression rate of 6 hours after administration of inflammatory agent (%) for every item in the list.
- Test system: croton oil-induced ear edema
- protocol-description: Test for croton oil-induced ear edema
- Assay type: in vivo
- assay-setup: rat right auricle, ointment concentration 0.001%, 6 hours after croton oil
Answers are plain numbers, in %.

Answered examples (5):
[
  {
    "compound": "CC12C=CC(=O)C=C1CCC1C2C(O)CC2(C)C1CC1OC(C3CCCCC3)OC12C(=O)COC1OC(CO)C(O)C(O)C1O (stereo not drawn)",
    "target-under-test": "croton oil-induced ear edema",
    "value-measured": 13.5
  },
  {
    "compound": "CCCC(=O)OCC1OC(OCC(=O)C23OC(C4CCCCC4)OC2CC2C4CCC5=CC(=O)C=CC5(C)C4C(O)CC23C)C(OC(=O)CCC)C(OC(=O)CCC)C1OC(=O)CCC (stereo not drawn)",
    "target-under-test": "croton oil-induced ear edema",
    "value-measured": 21.7
  },
  {
    "compound": "CC(=O)NC1C(OCC(=O)C23OC(C4CCCCC4)OC2CC2C4CCC5=CC(=O)C=CC5(C)C4C(O)CC23C)OC(COC(C)=O)C(OC(C)=O)C1OC(C)=O (stereo not drawn) [Compound 12]",
    "target-under-test": "croton oil-induced ear edema",
    "value-measured": 29.9
  },
  {
    "compound": "CC(=O)NC1C(OCC(=O)C23OC(C4CCCCC4)OC2CC2C4CCC5=CC(=O)C=CC5(C)C4C(O)CC23C)OC(COC(C)=O)C(OC(C)=O)C1OC(C)=O (stereo not drawn) [Compound 11]",
    "target-under-test": "croton oil-induced ear edema",
    "value-measured": 24.5
  },
  {
    "compound": "CC(C)C(=O)OCC1OC(OCC(=O)C23OC(C4CCCCC4)OC2CC2C4CCC5=CC(=O)C=CC5(C)C4C(O)CC23C)C(OC(=O)C(C)C)C(OC(=O)C(C)C)C1OC(=O)C(C)C (stereo not drawn)",
    "target-under-test": "croton oil-induced ear edema",
    "value-measured": 27.5
  }
]

What measured Edema suppression rate of 6 hours after administration of inflammatory agent (%) goes with CCC(=O)OCC1OC(OCC(=O)C23OC(C4CCCCC4)OC2CC2C4CCC5=CC(=O)C=CC5(C)C4C(O)CC23C)C(OC(=O)CC)C(OC(=O)CC)C1OC(=O)CC (stereo not drawn) ?
30.8
